Target: T1, denatured bovine pancreatic Ribonuclease B (bovine, UniProt P61823 27-150)
T1 construct: mature; also called dRNase B; denatured RNase B
T1 sequence: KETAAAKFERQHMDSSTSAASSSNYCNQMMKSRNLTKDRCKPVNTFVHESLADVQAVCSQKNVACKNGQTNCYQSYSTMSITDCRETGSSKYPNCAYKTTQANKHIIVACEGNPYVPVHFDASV
Test: SPR (Biacore 3000), dRNase B immobilised on CM5; calculated from KD
Reported ΔGBIND-EXP values for the following binders.
parameter.measured: ΔGBIND-EXP (kcal/mol)

>>> recorded_value("PNGase F clone R911 C60A (D57L, D60A, I156L, G192I, E206S, R248W) (designed binder) GIPAPADNTVNIKTFDKVKNAFGDGLSQSAEGTFTFPADVTAVKTIKMFIKNECPNKTCLEWARYANVYVKNKTTGEWYEIGRFITPYWVGTEKLPRGLEIDVTDFKSLLSGNTELKIYTETWLAKGREYSVDFDIVYGTPDYKYSAVVPVVQYNKSSLDGVPYGKAHTLALKKNIQLPTNTEKAYLRTTISGWIHAKPYDAGSRGCASWCFRTHTIAINNSNTFQHQLGALGCSANPINNQSPGNWTPDWAGWCPGMAVPTRIDVLNNSLIGSTFSYEYKFQNWTNNGTNGDAFYAISSFVIAKSNTPISAPVVTNLDPHHHHHH")
-7.77
>>> recorded_value("PNGase F D60A single point mutant (enzyme, also called D60A control clone) GIPAPADNTVNIKTFDKVKNAFGDGLSQSAEGTFTFPADVTAVKTIKMFIKNECPNKTCDEWARYANVYVKNKTTGEWYEIGRFITPYWVGTEKLPRGLEIDVTDFKSLLSGNTELKIYTETWLAKGREYSVDFDIVYGTPDYKYSAVVPVVQYNKSSIDGVPYGKAHTLALKKNIQLPTNTEKAYLRTTISGWGHAKPYDAGSRGCAEWCFRTHTIAINNSNTFQHQLGALGCSANPINNQSPGNWTPDRAGWCPGMAVPTRIDVLNNSLIGSTFSYEYKFQNWTNNGTNGDAFYAISSFVIAKSNTPISAPVVTNLDPHHHHHH")
-7.61
>>> recorded_value("PNGase F clone R911 (D57L, D60C, I156L, G192I, E206S, R248W) (designed binder) GIPAPADNTVNIKTFDKVKNAFGDGLSQSAEGTFTFPADVTAVKTIKMFIKNECPNKTCLEWCRYANVYVKNKTTGEWYEIGRFITPYWVGTEKLPRGLEIDVTDFKSLLSGNTELKIYTETWLAKGREYSVDFDIVYGTPDYKYSAVVPVVQYNKSSLDGVPYGKAHTLALKKNIQLPTNTEKAYLRTTISGWIHAKPYDAGSRGCASWCFRTHTIAINNSNTFQHQLGALGCSANPINNQSPGNWTPDWAGWCPGMAVPTRIDVLNNSLIGSTFSYEYKFQNWTNNGTNGDAFYAISSFVIAKSNTPISAPVVTNLDPHHHHHH")
-8.99
